These measurements were taken from PubChem BioAssay AID2060610.

tested on: 616215-338-R-J1-PDC complex spheroids, viability % test/control; test: Anticancer human tumor 616215-338-R-J1-PDC patient-derived colon adenocarcinoma cell line growth inhibition [CLK]; conditions: second compound 0.316 µM; first compound 0.1 µM; active compounds read low
Binary call on viability, T/C with cut-off 40%: strictly below means yes (1), and equality or higher means no (0).

>>> group_label("C=C(F)C(=O)N1CCN(c2nc(OCC3CCCN3C)nc3c2CCN(c2cccc4cccc(Cl)c24)C3)CC1CC#N (stereo unspecified) + CN1CCN(c2cc(C(=O)Nc3cc4cc(-c5cnn(C)c5)ccc4cn3)ccn2)CC1")
"no (0)"
>>> group_label("O=C(c1cc(Cc2n[nH]c(=O)c3ccccc23)ccc1F)N1CCN(C(=O)C2CC2)CC1 + CNC(=O)c1ccc(Nc2nc(OC3CCCC3)c3c(-c4ccc5nc(C)oc5c4)c[nH]c3n2)c(OC)c1")
"no (0)"
>>> group_label("COc1c(OCCCN2CCOCC2)ccc2c3n(c(=NC(=O)c4cnc(N)nc4)nc12)CCN3 + CNC(=O)c1ccc(Nc2nc(OC3CCCC3)c3c(-c4ccc5nc(C)oc5c4)c[nH]c3n2)c(OC)c1")
"yes (1)"
>>> group_label("CC(Nc1ccc2c(c1)OCCn1cc(N3C(=O)OCC3C(F)F)nc1-2)C(N)=O (stereo unspecified) + CN1CCN(c2cc(C(=O)Nc3cc4cc(-c5cnn(C)c5)ccc4cn3)ccn2)CC1")
"yes (1)"
>>> group_label("CCN1CCN(Cc2ccc(Nc3ncc(F)c(-c4cc(F)c5nc(C)n(C(C)C)c5c4)n3)nc2)CC1 + CN1CCN(c2cc(C(=O)Nc3cc4cc(-c5cnn(C)c5)ccc4cn3)ccn2)CC1")
"no (0)"
>>> group_label("O=c1[nH]cc(F)c(=O)[nH]1 + CNC(=O)c1ccc(Nc2nc(OC3CCCC3)c3c(-c4ccc5nc(C)oc5c4)c[nH]c3n2)c(OC)c1")
"no (0)"
>>> group_label("CCN1CCN(Cc2ccc(Nc3ncc(F)c(-c4cc(F)c5nc(C)n(C(C)C)c5c4)n3)nc2)CC1 + CNC(=O)c1ccc(Nc2nc(OC3CCCC3)c3c(-c4ccc5nc(C)oc5c4)c[nH]c3n2)c(OC)c1")
"no (0)"
>>> group_label("Cn1ncnc1[C@H]1c2n[nH]c(=O)c3cc(F)cc(c23)N[C@@H]1c1ccc(F)cc1 + CN1CCN(c2cc(C(=O)Nc3cc4cc(-c5cnn(C)c5)ccc4cn3)ccn2)CC1")
"yes (1)"
>>> group_label("CC1COCCN1c1cc(C2(S(C)(=N)=O)CC2)nc(-c2ccnc3[nH]ccc23)n1 (stereo unspecified) + CNC(=O)c1ccc(Nc2nc(OC3CCCC3)c3c(-c4ccc5nc(C)oc5c4)c[nH]c3n2)c(OC)c1")
"no (0)"
>>> group_label("C#Cc1c(F)ccc2cc(O)cc(-c3ncc4c(N5CC6CCC(C5)N6)nc(OCC56CCCN5CC(F)C6)nc4c3F)c12 (stereo unspecified) + CN1CCN(c2cc(C(=O)Nc3cc4cc(-c5cnn(C)c5)ccc4cn3)ccn2)CC1")
"yes (1)"
>>> group_label("C=CC(=O)N1CCN(c2nc(=O)n(-c3c(C)ccnc3C(C)C)c3nc(-c4c(O)cccc4F)c(F)cc23)C(C)C1 (stereo unspecified) + CNC(=O)c1ccc(Nc2nc(OC3CCCC3)c3c(-c4ccc5nc(C)oc5c4)c[nH]c3n2)c(OC)c1")
"no (0)"

----------
tested on: 616215-338-R-J1-PDC complex spheroids, viability % test/control; assay: Anticancer human tumor 616215-338-R-J1-PDC cell line growth inhibition [CLK]; settings: second compound 0.316 µM; first compound 0.316 µM; active compounds read low;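 note: spheroids exposed to agents for 7 days; 100% = DMSO vehicle wells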
Cut-off 30% on viability, T/C: below means t, at or above means f.

>>> group_label("CC1COCCN1c1cc(C2(S(C)(=N)=O)CC2)nc(-c2ccnc3[nH]ccc23)n1 (stereo not given) + CNC(=O)c1ccc(Nc2nc(OC3CCCC3)c3c(-c4ccc5nc(C)oc5c4)c[nH]c3n2)c(OC)c1")
"f"
>>> group_label("CCCS(=O)(=O)Nc1ccc(F)c(C(=O)c2c[nH]c3ncc(-c4ccc(Cl)cc4)cc23)c1F + CN1CCN(c2cc(C(=O)Nc3cc4cc(-c5cnn(C)c5)ccc4cn3)ccn2)CC1")
"f"
>>> group_label("O=C(c1cc(Cc2n[nH]c(=O)c3ccccc23)ccc1F)N1CCN(C(=O)C2CC2)CC1 + CNC(=O)c1ccc(Nc2nc(OC3CCCC3)c3c(-c4ccc5nc(C)oc5c4)c[nH]c3n2)c(OC)c1")
"f"
>>> group_label("CC(Nc1ccc2c(c1)OCCn1cc(N3C(=O)OCC3C(F)F)nc1-2)C(N)=O (stereo not given) + CN1CCN(c2cc(C(=O)Nc3cc4cc(-c5cnn(C)c5)ccc4cn3)ccn2)CC1")
"t"
>>> group_label("CC1(C)CCC(CN2CCN(c3ccc(C(=O)NS(=O)(=O)c4ccc(NCC5CCOCC5)c([N+](=O)[O-])c4)c(Oc4cnc5[nH]ccc5c4)c3)CC2)=C(c2ccc(Cl)cc2)C1 + CN1CCN(c2cc(C(=O)Nc3cc4cc(-c5cnn(C)c5)ccc4cn3)ccn2)CC1")
"f"

----------
tested on: 616215-338-R-J1-PDC complex spheroids, viability % test/control; assay: Anticancer human tumor 616215-338-R-J1-PDC cell line growth inhibition [CLK]; settings: second compound 0.316 µM; first compound 0.1 µM; active compounds read low;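 note: spheroids exposed to agents for 7 days; 100% = DMSO vehicle wells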
Property Label: viability, T/C (%)

>>> value_reported("C#Cc1c(F)ccc2cc(O)cc(-c3ncc4c(N5CC6CCC(C5)N6)nc(OCC56CCCN5CC(F)C6)nc4c3F)c12 (stereo not drawn) + CNC(=O)c1ccc(Nc2nc(OC3CCCC3)c3c(-c4ccc5nc(C)oc5c4)c[nH]c3n2)c(OC)c1")
43.8
>>> value_reported("CCc1c2c(nc3ccc(O)cc13)-c1cc3c(c(=O)n1C2)COC(=O)[C@]3(O)CC + CN1CCN(c2cc(C(=O)Nc3cc4cc(-c5cnn(C)c5)ccc4cn3)ccn2)CC1")
8.84
>>> value_reported("Cn1ncnc1[C@H]1c2n[nH]c(=O)c3cc(F)cc(c23)N[C@@H]1c1ccc(F)cc1 + CNC(=O)c1ccc(Nc2nc(OC3CCCC3)c3c(-c4ccc5nc(C)oc5c4)c[nH]c3n2)c(OC)c1")
51.3

----------
system: 616215-338-R-J1-PDC complex spheroids, viability % test/control; assay: Anticancer human tumor 616215-338-R-J1-PDC cell line growth inhibition [CLK]; conditions: second compound 3.16 µM; first compound 0.0316 µM; active compounds read low;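 note: spheroids exposed to agents for 7 days; 100% = DMSO vehicle wells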
# note: exactly 0.1% is not below, so it is false; use true for viability, T/C strictly under it

>>> group_label("C=CC(=O)N1CCN(c2nc(=O)n(-c3c(C)ccnc3C(C)C)c3nc(-c4c(O)cccc4F)c(F)cc23)C(C)C1 (stereo not drawn) + CN1CCN(c2cc(C(=O)Nc3cc4cc(-c5cnn(C)c5)ccc4cn3)ccn2)CC1")
"false"
>>> group_label("Cn1ncnc1[C@H]1c2n[nH]c(=O)c3cc(F)cc(c23)N[C@@H]1c1ccc(F)cc1 + CN1CCN(c2cc(C(=O)Nc3cc4cc(-c5cnn(C)c5)ccc4cn3)ccn2)CC1")
"true"
>>> group_label("CC1(C)CCC(CN2CCN(c3ccc(C(=O)NS(=O)(=O)c4ccc(NCC5CCOCC5)c([N+](=O)[O-])c4)c(Oc4cnc5[nH]ccc5c4)c3)CC2)=C(c2ccc(Cl)cc2)C1 + CN1CCN(c2cc(C(=O)Nc3cc4cc(-c5cnn(C)c5)ccc4cn3)ccn2)CC1")
"false"
>>> group_label("C=CC(=O)N1CCN(c2nc(=O)n(-c3c(C)ccnc3C(C)C)c3nc(-c4c(O)cccc4F)c(F)cc23)C(C)C1 (stereo not drawn) + CNC(=O)c1ccc(Nc2nc(OC3CCCC3)c3c(-c4ccc5nc(C)oc5c4)c[nH]c3n2)c(OC)c1")
"false"
>>> group_label("CCCS(=O)(=O)Nc1ccc(F)c(C(=O)c2c[nH]c3ncc(-c4ccc(Cl)cc4)cc23)c1F + CN1CCN(c2cc(C(=O)Nc3cc4cc(-c5cnn(C)c5)ccc4cn3)ccn2)CC1")
"true"
>>> group_label("CC(CO)NC(=O)c1cc(-c2ccc(Cl)cc2)nn(-c2cnn(C)c2)c1=O (stereo not drawn) + CNC(=O)c1ccc(Nc2nc(OC3CCCC3)c3c(-c4ccc5nc(C)oc5c4)c[nH]c3n2)c(OC)c1")
"false"
>>> group_label("C#Cc1c(F)ccc2cc(O)cc(-c3ncc4c(N5CC6CCC(C5)N6)nc(OCC56CCCN5CC(F)C6)nc4c3F)c12 (stereo not drawn) + CNC(=O)c1ccc(Nc2nc(OC3CCCC3)c3c(-c4ccc5nc(C)oc5c4)c[nH]c3n2)c(OC)c1")
"false"

----------
tested on: 616215-338-R-J1-PDC complex spheroids, viability % test/control; assay: Anticancer human tumor 616215-338-R-J1-PDC cell line growth inhibition [CLK]; details: second compound 1 µM; first compound 0.316 µM; active = viability on the fitted dose curve at most 10% of control; inactive = the rest;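 note: spheroids exposed to agents for 7 days; 100% = DMSO vehicle wells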
Possible outcomes: active, inactive

>>> group_label("CCc1c2c(nc3ccc(O)cc13)-c1cc3c(c(=O)n1C2)COC(=O)[C@]3(O)CC + CN1CCN(c2cc(C(=O)Nc3cc4cc(-c5cnn(C)c5)ccc4cn3)ccn2)CC1")
"active"
>>> group_label("COc1ccc([C@@H](O)c2cc(-c3ncnc4cc(N5CCOCC5)ccc34)c(F)cc2Cl)nn1 + CN1CCN(c2cc(C(=O)Nc3cc4cc(-c5cnn(C)c5)ccc4cn3)ccn2)CC1")
"active"
>>> group_label("Nc1ccccc1NC(=O)c1ccc(CNC(=O)OCc2cccnc2)cc1 + CNC(=O)c1ccc(Nc2nc(OC3CCCC3)c3c(-c4ccc5nc(C)oc5c4)c[nH]c3n2)c(OC)c1")
"inactive"
>>> group_label("O=C(c1cc(Cc2n[nH]c(=O)c3ccccc23)ccc1F)N1CCN(C(=O)C2CC2)CC1 + CNC(=O)c1ccc(Nc2nc(OC3CCCC3)c3c(-c4ccc5nc(C)oc5c4)c[nH]c3n2)c(OC)c1")
"inactive"
>>> group_label("CC(=O)O[C@H]1C(=O)[C@@]2(C)[C@H]([C@H](OC(=O)c3ccccc3)[C@]3(O)C[C@H](OC(=O)[C@H](O)[C@@H](NC(=O)c4ccccc4)c4ccccc4)C(C)=C1C3(C)C)[C@]1(OC(C)=O)CO[C@@H]1C[C@@H]2O + CN1CCN(c2cc(C(=O)Nc3cc4cc(-c5cnn(C)c5)ccc4cn3)ccn2)CC1")
"active"
